B1: Lysine-specific demethylase 2B, residues 656 to 722; numbered along this chain, Q8NHM5 (parent)
chain: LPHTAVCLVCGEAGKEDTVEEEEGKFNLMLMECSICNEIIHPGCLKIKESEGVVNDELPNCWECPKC

variants of: B1; experiment: abundance fitness (aPCA) (normalised: wild type 0, dead -1); higher = more abundant; growth selection in yeast, the domain comes from the species named; conditions: Homo sapiens

>  <Variant id>
E63K

>  <abundance fitness>
0.146

$$$$
>  <Variant id>
I47W

>  <abundance fitness>
-0.09

$$$$
>  <Variant id>
I35T

>  <abundance fitness>
0.147

$$$$
>  <Variant id>
E57C

>  <abundance fitness>
0.036

$$$$
>  <Variant id>
E20W

>  <abundance fitness>
-0.4

$$$$
>  <Variant id>
I40P

>  <abundance fitness>
-0.72

$$$$
>  <Variant id>
V9N

>  <abundance fitness>
0.239

$$$$
>  <Variant id>
T18N

>  <abundance fitness>
-0.026

$$$$
>  <Variant id>
E32R

>  <abundance fitness>
0.201

$$$$
>  <Variant id>
C10G

>  <abundance fitness>
-0.277

$$$$
>  <Variant id>
E57P

>  <abundance fitness>
-0.296

$$$$
>  <Variant id>
G14I

>  <abundance fitness>
-0.418

$$$$
>  <Variant id>
L1H

>  <abundance fitness>
-0.174

$$$$
>  <Variant id>
C61S

>  <abundance fitness>
0.018

$$$$
>  <Variant id>
F26T

>  <abundance fitness>
-0.155

$$$$
>  <Variant id>
C10Q

>  <abundance fitness>
-0.528

$$$$
>  <Variant id>
K48P

>  <abundance fitness>
-0.159

$$$$
>  <Variant id>
L45S

>  <abundance fitness>
0.081

$$$$
>  <Variant id>
P59G

>  <abundance fitness>
-0.076

$$$$
>  <Variant id>
K66W

>  <abundance fitness>
-0.846

$$$$
>  <Variant id>
E22W

>  <abundance fitness>
-0.308

$$$$
>  <Variant id>
L28M

>  <abundance fitness>
0.364

$$$$
>  <Variant id>
L30M

>  <abundance fitness>
-0.373

$$$$
>  <Variant id>
E16P

>  <abundance fitness>
-0.043

$$$$
>  <Variant id>
E49I

>  <abundance fitness>
-0.244

$$$$
>  <Variant id>
A13R

>  <abundance fitness>
0.443

$$$$
>  <Variant id>
H41L

>  <abundance fitness>
-0.925

$$$$
>  <Variant id>
E63T

>  <abundance fitness>
0.102

$$$$
>  <Variant id>
S50H

>  <abundance fitness>
-0.208

$$$$
>  <Variant id>
T4R

>  <abundance fitness>
-0.979

$$$$
>  <Variant id>
K25A

>  <abundance fitness>
-0.242

$$$$
>  <Variant id>
V6H

>  <abundance fitness>
0.409

$$$$
>  <Variant id>
I35P

>  <abundance fitness>
-1.07

$$$$
>  <Variant id>
T4A

>  <abundance fitness>
-0.889

$$$$
>  <Variant id>
H41R

>  <abundance fitness>
-0.943

$$$$
>  <Variant id>
E51W

>  <abundance fitness>
-0.14

$$$$
>  <Variant id>
P65D

>  <abundance fitness>
-0.547

$$$$
>  <Variant id>
S34W

>  <abundance fitness>
-0.545

$$$$
>  <Variant id>
E16S

>  <abundance fitness>
-0.204

$$$$
>  <Variant id>
C36H

>  <abundance fitness>
-1.18

$$$$
>  <Variant id>
L1C

>  <abundance fitness>
0.414

$$$$
>  <Variant id>
E20A

>  <abundance fitness>
-0.046

$$$$
>  <Variant id>
E12A

>  <abundance fitness>
-0.139

$$$$
>  <Variant id>
M31G

>  <abundance fitness>
-0.485

$$$$
>  <Variant id>
P2C

>  <abundance fitness>
0.396

$$$$
>  <Variant id>
H3E

>  <abundance fitness>
0.34

$$$$
